Entry source: ChEMBL document CHEMBL3616423

Tested on: HeLa
Assay: Cytotoxicity against human HeLa cells assessed as cell viability after 5 days by cell viability analyzer
Type: functional, cell-based
Conditions: 120 h
Entries and their measured IC50 follow.
// return numeric value only (unit: nM, not printed)

Worked examples, 4 compounds total:
{"COMPOUND": "O=C1c2ccccc2C(=O)c2c(O)c(CN(CCCl)CCCl)cc(O)c21", "IC50 (nM)": 139}
{"COMPOUND": "O=C1c2ccccc2C(=O)c2c(O)c(C(c3ccccc3)N(CCCl)CCCl)cc(O)c21 (stereo not given)", "IC50 (nM)": 339}
{"COMPOUND": "O=C1c2ccccc2C(=O)c2c(O)c(C(c3ccc(Cl)cc3)N(CCCl)CCCl)cc(O)c21 (stereo not given)", "IC50 (nM)": 185}
{"COMPOUND": "O=C1c2cccc(O)c2C(=O)c2c1ccc(C(c1ccccc1)N(CCCl)CCCl)c2O (stereo not given)", "IC50 (nM)": 308}

Could you now consider this next compound?
Query :: Requested field: IC50. Item: O=C(O)CCCc1ccc(N(CCCl)CCCl)cc1
Result :: 943

---

Entries and their measured pIC50 follow.
Test system: MDA-MB-231
Experiment: Cytotoxicity against human MDA-MB-231 cells assessed as cell viability after 5 days by cell viability analyzer
Format: functional, cell-based
Conditions: MDA-MB-231, 120 h
Kindly note that pIC50 refers to -log10 of the concentration in mol/L and answer with the value alone.

{"COMPOUND": "CCCC(c1cc(O)c2c(c1O)C(=O)c1ccccc1C2=O)N(CCCl)CCCl (stereo not drawn)", "pIC50": 7.21}

Query :: Requested field: pIC50. Item: O=C1c2ccccc2C(=O)c2c(O)c(C(c3ccc(Cl)cc3)N(CCCl)CCCl)cc(O)c21 (stereo not drawn)
Result :: 7.32

Query :: Requested field: pIC50. Item: Cc1ccc(C(c2cc(O)c3c(c2O)C(=O)c2ccccc2C3=O)N(CCCl)CCCl)cc1C (stereo not drawn)
Result :: 6.41

---

Entries and their measured pIC50 follow.
System: MDA-MB-231
Experiment: Cytotoxicity against human MDA-MB-231 cells assessed as cell viability after 5 days by cell viability analyzer
Assay type: functional, cell-based
Settings: MDA-MB-231, 120 h
Kindly note that pIC50 refers to -log10 of the concentration in mol/L and answer with the value alone.

Worked examples, 8 compounds total:
{"COMPOUND": "O=C1c2ccccc2C(=O)c2c(O)c(C(c3ccc(Br)cc3)N(CCCl)CCCl)cc(O)c21 (centres undefined)", "pIC50": 6.52}
{"COMPOUND": "O=C1c2ccccc2C(=O)c2c(O)c(C(c3ccc(F)cc3)N(CCCl)CCCl)cc(O)c21 (centres undefined)", "pIC50": 7.09}
{"COMPOUND": "O=C(O)CCCc1ccc(N(CCCl)CCCl)cc1", "pIC50": 6.28}
{"COMPOUND": "O=C1c2ccccc2C(=O)c2c(O)c(C(c3cccc(F)c3)N(CCCl)CCCl)cc(O)c21 (centres undefined)", "pIC50": 7.22}
{"COMPOUND": "CC(C)C(c1cc(O)c2c(c1O)C(=O)c1ccccc1C2=O)N(CCCl)CCCl (centres undefined)", "pIC50": 7.11}
{"COMPOUND": "O=C1c2cccc(O)c2C(=O)c2c1ccc(C(c1ccccc1)N(CCCl)CCCl)c2O (centres undefined)", "pIC50": 6.50}
{"COMPOUND": "CC(c1cc(O)c2c(c1O)C(=O)c1ccccc1C2=O)N(CCCl)CCCl (centres undefined)", "pIC50": 6.00}
{"COMPOUND": "COc1ccc(C(c2cc(O)c3c(c2O)C(=O)c2ccccc2C3=O)N(CCCl)CCCl)cc1 (centres undefined)", "pIC50": 7.89}

Could you now consider this next compound?
Query :: Requested field: pIC50. Item: O=C1c2ccccc2C(=O)c2c(O)c(C(Cc3ccccc3)N(CCCl)CCCl)cc(O)c21 (centres undefined)
Result :: 7.29

---

Tested on: HeLa
Assay: Cytotoxicity against human HeLa cells assessed as cell viability after 5 days by cell viability analyzer
Format: functional, cell-based
Conditions: 120 h
EXPERIMENTAL READOUT: IC50 (nM)
// return numeric value only (unit: nM, not printed)

Worked examples, 2 compounds total:
{"COMPOUND": "O=C1c2ccccc2C(=O)c2c(O)c(C(c3ccc(Br)cc3)N(CCCl)CCCl)cc(O)c21 (stereo not given)", "UNITS OF MEASURE": "nM", "IC50": 262}
{"COMPOUND": "CC(C)C(c1cc(O)c2c(c1O)C(=O)c1ccccc1C2=O)N(CCCl)CCCl (stereo not given)", "UNITS OF MEASURE": "nM", "IC50": 217}

Query :: Requested field: IC50. Item: Cc1ccc(C(c2cc(O)c3c(c2O)C(=O)c2ccccc2C3=O)N(CCCl)CCCl)cc1 (stereo not given)
Result :: 93.8

Query :: Requested field: IC50. Item: CC(c1cc(O)c2c(c1O)C(=O)c1ccccc1C2=O)N(CCCl)CCCl (stereo not given)
Result :: 154

Query :: Requested field: IC50. Item: CCCC(c1cc(O)c2c(c1O)C(=O)c1ccccc1C2=O)N(CCCl)CCCl (stereo not given)
Result :: 152

---

Test system: MDA-MB-231
Test: Cytotoxicity against human MDA-MB-231 cells assessed as cell viability after 5 days by cell viability analyzer
Assay type: functional, cell-based
Settings: MDA-MB-231, 120 h
EXPERIMENTAL READOUT: pIC50
Kindly note that pIC50 refers to -log10 of the concentration in mol/L and answer with the value alone.

Worked examples, 6 molecules total:
{"MOLECULE": "O=C1c2ccccc2C(=O)c2c(O)c(C(c3ccccc3)N(CCCl)CCCl)cc(O)c21 (centres undefined)", "pIC50": 6.86}
{"MOLECULE": "O=C1c2ccccc2C(=O)c2c(O)c(CN(CCCl)CCCl)cc(O)c21", "pIC50": 6.68}
{"MOLECULE": "COc1ccccc1C(c1cc(O)c2c(c1O)C(=O)c1ccccc1C2=O)N(CCCl)CCCl (centres undefined)", "pIC50": 8.67}
{"MOLECULE": "Cc1ccc(C(c2cc(O)c3c(c2O)C(=O)c2ccccc2C3=O)N(CCCl)CCCl)cc1 (centres undefined)", "pIC50": 7.65}
{"MOLECULE": "COc1cc(C(c2ccccc2)N(CCCl)CCCl)c(O)c2c1C(=O)c1ccccc1C2=O (centres undefined)", "pIC50": 6.56}
{"MOLECULE": "CCC(c1cc(O)c2c(c1O)C(=O)c1ccccc1C2=O)N(CCCl)CCCl (centres undefined)", "pIC50": 7.07}

Query :: Requested field: pIC50. Item: COc1cccc(C(c2cc(O)c3c(c2O)C(=O)c2ccccc2C3=O)N(CCCl)CCCl)c1 (centres undefined)
Result :: 7.04

Query :: Requested field: pIC50. Item: O=C1c2ccccc2C(=O)c2c(O)c(C(c3ccccc3F)N(CCCl)CCCl)cc(O)c21 (centres undefined)
Result :: 9.23

Query :: Requested field: pIC50. Item: CC(C)CC(c1cc(O)c2c(c1O)C(=O)c1ccccc1C2=O)N(CCCl)CCCl (centres undefined)
Result :: 7.84

---

System: HeLa
Assay: Cytotoxicity against human HeLa cells assessed as cell viability after 5 days by cell viability analyzer
Assay type: functional, cell-based
Details: 120 h
// NB: equality with 400 nM counts as Not met; only IC50 strictly below is Met

{"MOLECULE": "O=C1c2ccccc2C(=O)c2c(O)c(C(c3ccc(F)cc3)N(CCCl)CCCl)cc(O)c21 (stereo unspecified)", "MEASURED TARGET": "HeLa", "QUALITATIVE LABEL": "Met"}

Query :: State whether 400 nM exceeds IC50 recorded for O=C1c2ccccc2C(=O)c2c(O)c(C(c3cccc(F)c3)N(CCCl)CCCl)cc(O)c21 (stereo unspecified) .
Result :: Met

Query :: State whether 400 nM exceeds IC50 recorded for COc1cccc(C(c2cc(O)c3c(c2O)C(=O)c2ccccc2C3=O)N(CCCl)CCCl)c1 (stereo unspecified) .
Result :: Met

Query :: State whether 400 nM exceeds IC50 recorded for O=C1c2ccccc2C(=O)c2c(O)c(C(c3ccccc3F)N(CCCl)CCCl)cc(O)c21 (stereo unspecified) .
Result :: Not met

---

Test system: HeLa
Experiment: Cytotoxicity against human HeLa cells assessed as cell viability after 5 days by cell viability analyzer
Assay type: functional, cell-based
Settings: 120 h
EXPERIMENTAL READOUT: IC50 (nM)
// return numeric value only (unit: nM, not printed)

Worked examples, 2 molecules total:
{"MOLECULE": "O=C1c2ccccc2C(=O)c2c(O)c(C(Cc3ccccc3)N(CCCl)CCCl)cc(O)c21 (configuration not stated)", "MEASURED TARGET": "HeLa", "IC50 [nM]": 665}
{"MOLECULE": "CC(C)CC(c1cc(O)c2c(c1O)C(=O)c1ccccc1C2=O)N(CCCl)CCCl (configuration not stated)", "MEASURED TARGET": "HeLa", "IC50 [nM]": 392}

Query :: Requested field: IC50. Item: COc1ccccc1C(c1cc(O)c2c(c1O)C(=O)c1ccccc1C2=O)N(CCCl)CCCl (configuration not stated)
Result :: 210
